pIC50: −log10 of the molar value.
pIC50 for Dual specificity protein kinase CLK1 (Homo sapiens), merged from several publications.

# annotated cases, reported pIC50 shown
INSERT INTO assay_data (given_smiles, target_of_assay, experimental_result) VALUES
  ('COc1cc(P(C)(C)=O)ccc1Nc1nc(NC2CCCCC2)c2c(C(F)(F)F)c[nH]c2n1', 'Dual specificity protein kinase CLK1 (Homo sapiens)', '6.00 to 6.52'),
  ('Cc1snc2c1/C=C/c1n[nH]c3ccc(cc13)-c1cnn(C)c1OCCOC2', 'Dual specificity protein kinase CLK1 (Homo sapiens)', 8.98),
  ('COc1cc(S(=O)(=O)N2CCC(N3CCOCC3)CC2)ccc1Nc1cc(NC2CCCC2)c2c(C#N)c[nH]c2n1', 'Dual specificity protein kinase CLK1 (Homo sapiens)', '6.00 to 6.52'),
  ('CC(C)Oc1nn(CCO)c2c1/C=C/c1n[nH]c3ccc(cc13)-c1cnn(C)c1O[C@@H](C)CN(C)C2', 'Dual specificity protein kinase CLK1 (Homo sapiens)', 9.89),
  ('COc1cc(P(C)(C)=O)ccc1Nc1cc(C2CC2)c2c(C(F)(F)F)c[nH]c2n1', 'Dual specificity protein kinase CLK1 (Homo sapiens)', '6.00 to 6.52'),
  ('O=C(c1ccc(Nc2nc(NC3CC3)c3c(C(F)(F)F)c[nH]c3n2)c2c1OCCO2)N1CCC(N2CCOCC2)CC1', 'Dual specificity protein kinase CLK1 (Homo sapiens)', '> 7.00'),
  ('CN1CCC(c2ccc3c(c2)O[C@@H]2CCN(CCOc4c(cnn4C)-c4ccc5[nH]nc(c5c4)/C=C/3)C2=O)CC1', 'Dual specificity protein kinase CLK1 (Homo sapiens)', 9.77),
  ('COCCNc1nc(Nc2ccc(C(=O)N3CCOCC3)c3c2OCCO3)nc2[nH]cc(C(F)(F)F)c12', 'Dual specificity protein kinase CLK1 (Homo sapiens)', '> 7.00'),
  ('CCNc1nc(Nc2ccc(C(=O)N3CCOCC3)c3c2OCO3)nc2[nH]cc(C(F)(F)F)c12', 'Dual specificity protein kinase CLK1 (Homo sapiens)', '> 7.00'),
  ('N#Cc1c[nH]c2nc(Nc3ccc(C(=O)N4CCN(C5CC5)CC4)c4c3OCCO4)nc(NC3CCCCC3)c12', 'Dual specificity protein kinase CLK1 (Homo sapiens)', '6.00 to 6.52');

Would you kindly look at the next entry?
Incoming: I would be grateful if you could share the reported pIC50 for COc1cc(S(C)(=O)=O)ccc1Nc1nc(NCC2CCCC2)c2c(C#N)c[nH]c2n1 .
Outgoing: 6.00 to 6.52
